Listed below are molecules with pKi for D(3) dopamine receptor (Homo sapiens), each taken from published literature.
pKi: −log10 of the molar value.
observation.type: pKi

Use the examples below as a reference point.
# molecule, pKi
data = [
    ("COc1cc2c(cc1OC)CN(Cc1ccccc1CNC(=O)c1cccc(C#N)c1)CC2", 8.92),
    ("O=C(CCCCCC(=O)OC1(c2ccc(Cl)cc2)CCN(CCCC(=O)c2ccc(F)cc2)CC1)OC1(c2ccc(Cl)cc2)CCN(CCCC(=O)c2ccc(F)cc2)CC1", 7.96),
    ("COc1ccc(S(=O)(=O)N(C)c2ccccc2)cc1-c1ccc(CN2CCCCCC2c2ccccc2)[nH]1 (centres undefined)", 8.20),
    ("CCCCCCNC(=O)/N=C(\\N)Nc1cccc(-c2csc(N)n2)c1", 5.89),
]

[1] COc1cc(CN2CCN(c3ccc(Cl)cc3)CC2)c(OCCF)cc1OC
[2] Cc1ccccc1N1CCN(CCCCNC(=O)c2ccc3ccccc3c2)CC1
Q. Endpoint returns the identifier whose pKi is numerically larger, either 1 or 2 . Provide the label of your selected option as the answer.
A. 2

[P] COc1ccccc1N1CCN(CCCNC(=O)Nc2ccccc2-c2cccc(F)c2)CC1
[Q] O=C(NCCCCN1CCN(c2cccc(F)c2)CC1)c1cc2ccccc2cn1
Q. Could you determine which record has the numerically smaller pKi? Candidates: P and Q Provide the label of your selected option as the answer.
A. P

###

pKi: −log10 of the molar value.
Listed below are compounds with pKi for D(3) dopamine receptor (Homo sapiens, UniProt P35462), each taken from published literature.
observation.type: pKi

# compound, observation.type, value.observed
records = [
    ("CCc1cc(Cl)c(OC)c(C(=O)NC[C@@H]2CCCN2CCCCNC(=O)c2cc3ccccc3[nH]2)c1O", "pKi", 7.21),
    ("CC(C)(C)OC(=O)NCC#Cc1ccc2c(c1)C=C([N+](=O)[O-])C(C(F)(F)F)O2 (centres undefined)", "pKi", 5.77),
    ("COc1cc(CCNCCc2ccc(O)c(O)c2)ccc1OCCCc1ccccc1", "pKi", 7.92),
]

[a] COc1ccccc1N1CCN(CCNC(=O)/N=N/c2ccc(F)cc2)CC1
[b] O=[N+]([O-])c1cccc(-c2cc(CCCCN3CCN(c4ccccc4)CC3)on2)c1
[c] COc1ccccc1N1CCN(CCCCNC(=O)c2ccc(I)cc2)CC1
Q. In this exercise, place the 3 compounds in ascending sequence of their recorded pKi. Form entry: labels listed in requested order.
A. a, b, c
(a: 6.92, b: 7.22, c: 8.41)

###

pKi: −log10 of the molar value.
Listed below are compounds with pKi for D(3) dopamine receptor (Homo sapiens), each taken from published literature.
observation.type: pKi

Use the examples below as a reference point.
# compound, pKi
records = [
    ("c1ccc(N2CCN(CCCn3ccc4ccccc43)CC2)cc1", 6.31),
    ("COc1ccc2c(c1)[C@H]1OCCN(CCCCNC(=O)c3cccnc3)[C@@H]1CO2 (racemic)", 8.04),
    ("COc1ccccc1N1CCN(CCCCNC(=O)/C=C/c2ccc(Cl)c(Cl)c2)CC1", 8.88),
    ("O=C1Cc2c(ccc(Cl)c2N2CCN(Cc3ccccc3)CC2)N1", 6.23),
    ("CC1=CC(C)=[N+]2C1=C(c1ccc(OCCCN3CCCCC3)cc1)c1c(C)cc(C)n1[B-]2(F)F", 5.83),
    ("CCCN1CCOC2c3cc(C(N)=O)ccc3CCC21 (racemic)", 7.71),
]

[1] CCCN(CCCCNC(=O)c1ccc(OCCCc2cn(CCCCCCCCn3cc(CCCOc4ccc(CN5CCN(c6ccccc6OC)CC5)cc4OC)nn3)nn2)c(OC)c1)C1Cc2ccccc2C1
[2] O=C(NCCN1CCN(c2ccc(I)cc2)CC1)NN(Cc1ccccc1)c1ccccc1
[3] CCCCn1cc(COc2ccc(CN3CCN(c4ccccc4OC)CC3)cc2OC)nn1
Q. Given 3 compounds, produce a descending ranking by pKi. Form entry: labels listed in requested order.
A. 1, 3, 2

[A] CCc1cc(Cl)c(OC)c(C(=O)NCC2CCN(CC)C2)c1O (configuration not stated)
[B] COc1ccccc1N1CCN(CCCNC(=O)Nc2ccccc2-c2ccc(-c3ccccc3)cc2)CC1
Q. Endpoint returns the identifier whose pKi is numerically larger, either A or B . Provide the label of your selected option as the answer.
A. A

[P] C=CCN1C[C@H](OC(=O)Nc2ccc(-c3ccsc3)cc2)C[C@H]1CNC(=O)c1cc(CCCF)cc(OC)c1OC
[Q] CN1CCc2ccccc2Cc2[nH]c3ccccc3c2CC1
Q. Could you determine which record has the numerically smaller pKi? Candidates: P and Q Provide the label of your selected option as the answer.
A. Q

[a] COc1ccc(-n2cc(CCCC(=O)NCCCCN3CCN(c4cccc(Cl)c4Cl)CC3)nn2)cc1
[b] CN(CCC(=O)OC1(c2ccc(Cl)cc2)CCN(CCCC(=O)c2ccc(F)cc2)CC1)CCN(C)CCC(=O)OC1(c2ccc(Cl)cc2)CCN(CCCC(=O)c2ccc(F)cc2)CC1
[c] O=C(/C=C/c1ccc2ccccc2n1)NCCCCN1CCc2ccc(OS(=O)(=O)C(F)(F)F)cc2C1
[d] COc1ccccc1N1CCN(CCCCNC(=O)/C=C/c2ccc(Cl)cc2)CC1
Q. Given 4 compounds, produce a descending ranking by pKi. Form entry: labels listed in requested order.
A. d, c, a, b
(d: 9.36, c: 8.40, a: 8.03, b: 7.33)

[P] COc1ccccc1N1CCN(CCCCc2cc(-c3cccc([N+](=O)[O-])c3)no2)CC1
[Q] CS(=O)(=O)Oc1ccc2c(c1)CCN(CC[C@H]1CC[C@H](NC(=O)c3cccc(-n4cccc4)c3)CC1)CC2
[R] CCCN1CCc2cccc3c2C1Cc1cccc(OCc2cn(CCCN4CCN(c5ccccc5)CC4)nn2)c1-3 (racemic)
[S] CNCC1Cc2cc3ccn(S(=O)(=O)c4cccc5ccccc45)c3cc21 (configuration not stated)
Q. In this exercise, place the 4 compounds in ascending sequence of their recorded pKi. Form entry: labels listed in requested order.
A. S, R, P, Q
(S: 6.10, R: 6.72, P: 8.22, Q: 8.50)

[P] CC(C)(C)c1nc(N2CCN(CCCCn3ccc(N4CCCCC4)nc3=O)CC2)cc(C(F)(F)F)n1
[Q] CCCN1CCc2cccc3c2C1Cc1cccc(OCCCn2cc(CCCN4CCN(c5ccccc5OC)CC4)nn2)c1-3 (racemic)
[R] COc1ccccc1N1CCN(CCCCNC(=O)/C=C/c2ccc(I)cc2)CC1
[S] CCCN(CCN1CCN(Cc2cc3ccccc3[nH]2)CC1)Cc1ccc(OC)cc1
Q. Given 4 compounds, produce a descending ranking by pKi. Form entry: labels listed in requested order.
A. R, P, Q, S

[1] COc1cc2c(cc1OC)C1=NO[C@@H](CN3CCN(Cc4ccc5ccccc5c4)CC3)[C@@H]1CO2
[2] COc1ccccc1N1CCN(CCCCNC(=O)/C=C/c2cc(I)c(OC)c(OC)c2)CC1
[3] CC(C)(C)NC(=O)NCCCCN1CCN(c2cc(C(F)(F)F)nc(C(C)(C)C)n2)CC1
[4] O=C(NCCCN1CCN(c2cccc(Cl)c2Cl)CC1)C1c2ccccc2-c2ccccc21
[5] CCCCCCNC(=O)/N=C(\N)NC1CCc2nc(N)sc2C1 (configuration not stated)
Q. Given 5 compounds, produce a descending ranking by pKi. Form entry: labels listed in requested order.
A. 3, 2, 4, 1, 5
(3: 8.40, 2: 7.83, 4: 7.62, 1: 6.97, 5: 5.90)

[a] CC(=O)Nc1cccc(/C=C/C(=O)N[C@H]2CC[C@H](CCN3CCc4ccc(C#N)cc4CC3)CC2)c1F
[b] COc1ccc(Br)c(O)c1C(=O)NCCN1CCN(c2ccccc2)CC1
Q. Endpoint returns the identifier whose pKi is numerically larger, either a or b . Provide the label of your selected option as the answer.
A. a
(a: 8.40, b: 6.40)

###

Listed below are compounds with Ki for D(3) dopamine receptor (Homo sapiens, UniProt P35462), each taken from published literature.
observation.type: Ki (nM)

# compound, unit.abbreviation, Ki
rows = [
    ("N#Cc1ccc2c(c1)CN(CC[C@H]1CC[C@H](NC(=O)c3cc4ccccc4[nH]3)CC1)C2", "nM", 25.1),
]

[P] N#Cc1ccccc1N1CCN(CCCN2C(=O)CCc3ccccc32)CC1
[Q] CCCN(CCC)[C@@H]1CCn2c(C=O)ccc2C1
Q. Endpoint returns the identifier whose Ki is numerically larger, either P or Q . Provide the label of your selected option as the answer.
A. Q
(Q: 1800 nM, P: 339 nM)

###

pKi: −log10 of the molar value.
Listed below are molecules with pKi for UniProt P35462, each taken from published literature.
observation.type: pKi

Use the examples below as a reference point.
# molecule, value.observed
data = [
    ("COc1c(Cl)cccc1N1CCN(CC(O)CCNC(=O)c2cnc3ccccc3c2)CC1 (centres undefined)", 7.50),
    ("COc1ccccc1N1CCN(CCCNC(=O)Cc2cccc3ccccc23)CC1", 6.97),
    ("COc1ccccc1N1CCCN(CCCCNC(=O)c2ccc(-c3ccccc3)s2)CC1", 8.05),
    ("C=CCN1C[C@H](OCCCO)C[C@H]1CNC(=O)c1cc(CCCF)cc(OC)c1OC", 8.14),
]

[a] COc1ccccc1N1CCN(CC(O)CCn2cc(-c3ccc4ccccc4c3)nn2)CC1 (racemic)
[b] Cc1nc(-c2cccc(C(=O)N[C@H]3CC[C@H](CCN4CCc5ccc(OS(C)(=O)=O)cc5CC4)CC3)c2)no1
[c] Cc1cnc(-c2cccc(C(=O)N[C@H]3CC[C@H](CCN4CCc5ccc(S(C)(=O)=O)cc5CC4)CC3)c2)o1
[d] CC(C)(C)c1nc(N2CCN(CCCCCN3C(=O)CCc4ccccc43)CC2)cc(C(F)(F)F)n1
Q. Given 4 molecules, produce a descending ranking by pKi. Form entry: labels listed in requested order.
A. b, c, a, d
(b: 8.60, c: 8.10, a: 7.39, d: 5.39)
